meta.source: the MegaScale stability set (Tsuboyama et al. 2023)

B1: r4_43_TrROS_Hall (parent)
chain: DLVTIKVPLENLEEIKKAAEKAGFKIVSISYDKENKEVTIVIEKKK

- Variants of: B1
- assaySummary: folding stability dG (cDNA display proteolysis); higher = more stable
- protocolConditions: PBS, room temperature
measurementKind: folding stability dG
Respond with a number, then the unit of measure.

Solved entries:
L2I: 13.1 kJ/mol
I5D: 9.78 kJ/mol

## Task # return recorded folding stability dG for input G23L
## Result 14.7 kJ/mol
